- assay-explanation: total protein half-life in vivo (active degradation + dilution); higher = more stable protein
- experimental-setup: wild type E. coli NCM3722; growth: C-lim chemostat; doubling time 3 h
Threshold check on total protein half-life in vivo: at or above 3 h gives Condition met, strictly below gives Condition not met.

These recorded examples may help you get a feel for the data.
>>> category("MLIIKRSVAIIAILFSPLSTASNLTSQLHNFFSAQLAGVSDEVRVSIRTAPNLLPPCEQPLLSMSNNSRLWGNVNVLARCGNDKRYLQVNVQATGNYVVAAMPIARGGKLEAGNVKLKRGRLDTLPPRTVLDINQLVDAISLRDLSPDQPIQLTQFRQAWRVKAGQRVNVIASGDGFSANAEGQALNNAAVAQNARVRMVSGQVVSGVVDADGNILINL")
"Condition not met"
>>> category("MQDSILTTVVKDIDGEVTTLEKFAGNVLLIVNVASKCGLTPQYEQLENIQKAWVDRGFMVLGFPCNQFLEQEPGSDEEIKTYCTTTWGVTFPMFSKIEVNGEGRHPLYQKLIAAAPTAVAPEESGFYARMVSKGRAPLYPDDILWNFEKFLVGRDGKVIQRFSPDMTPEDPIVMESIKLALAK")
"Condition not met"
>>> category("MSKKIVLALGGNALGDDLAGQMKAVKITSQAIVDLIAQGHEVIVTHGNGPQVGMINQAFEAAAKTEAHSPMLPMSVCVALSQGYIGYDLQNALREELLSRGINKPVATLVTQVEVDANDPAFLNPTKPIGSFFTEQEAEQLTKQGYTLKEDAGRGYRRVVASPKPVDIIEKETVKALVDAGQVVITVGGGGIPVIREGNHLRGASAVIDKDWASARLAEMIDADMLIILTAVEKVAINFGKENEQWLDRLSLSDAERFIEEGHFAKGSMLPKVEAAASFARSRAGREALITVLSKAKEGIEGKTGTVICQ")
"Condition not met"
>>> category("MAEVTQLKRYDARPINWGKWFLIGIGMLVSAFILLVPMIYIFVQAFSKGLMPVLQNLADPDMLHAIWLTVMIALIAVPVNLVFGILLAWLVTRFNFPGRQLLLTLLDIPFAVSPVVAGLVYLLFYGSNGPLGGWLDEHNLQIMFSWPGMVLVTIFVTCPFVVRELVPVMLSQGSQEDEAAILLGASGWQMFRRVTLPNIRWALLYGVVLTNARAIGEFGAVSVVSGSIRGETLSLPLQIELLEQDYNTVGSFTAAALLTLMAIITLFLKSMLQWRLENQEKRAQQEEHHEH [P0AEB0]")
"Condition not met"
>>> category("MKATSEELAIFVSVVESGSFSRAAEQLGQANSAVSRAVKKLEMKLGVSLLNRTTRQLSLTEEGERYFRRVQSILQEMAAAESEIMETRNTPRGLLRIDAATPVVLHFLMPLIKPFRERYPEVTLSLVSSETIINLIERKVDVAIRAGTLTDSSLRARPLFNSYRKIIASPDYISRYGKPETIDDLKQHICLGFTEPASLNTWPIARSDGQLHEVKYGLSSNSGETLKQLCLSGNGIACLSDYMIDKEIARGELVELMADKVLPVEMPFSAVYYSDRAVSTRIRAFIDFLSEHVKTAPGGAVREA")
"Condition met"

# evaluate next
INPUT: Quick check, total protein half-life in vivo >= 3 h? MSLFHLIAPSGYCIKQHAALRGIQRLTDAGHQVNNVEVIARRCERFAGTETERLEDLNSLARLTTPNTIVLAVRGGYGASRLLADIDWQALVARQQHDPLLICGHSDFTAIQCGLLAHGNVITFSGPMLVANFGADELNAFTEHHFWLALRNETFTIEWQGEGPTCRAEGTLWGGNLAMLISLIGTPWMPKIENGILVLEDINEHPFRVERMLLQLYHAGILPRQKAIILGSFSGSTPNDYDAGYNLESVYAFLRSRLSIPLITGLDFGHEQRTVTLPLGAHAILNNTREGTQLTISGHPVLKM
OUTPUT: Condition met
